test system: HCI01 (cells of a triple-negative basal-like breast cancer xenograft); experiment: cell viability (% of vehicle); higher = less cytotoxic; conditions: 10 µM; 72 h;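 further: PDX cells carrying CMV promoter-driven luciferase, viability read as total photon flux per second by IVIS imaging following D-luciferin, vehicle control 0.1% DMSO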
Would you mind telling me the reported cell viability of each entry?
Could you keep your reply to the number by itself?

Input: Name the recorded cell viability of the item O=C(CCCN1CCN(c2ccccn2)CC1)c1ccc(F)cc1 in your answer.
Output: 119

Input: Input CCCCCCCCCCCCCCCCO , output reported cell viability.
Output: 108

Input: Give cell viability for the following compound: CCC(C(C)O)n1ncn(-c2ccc(N3CCN(c4ccc(OCC5COC(Cn6cncn6)(c6ccc(F)cc6F)C5)cc4)CC3)cc2)c1=O (centres undefined)
Output: 123

Input: Specify reported cell viability for the compound shown: Cc1ccc(Nc2nccc(N(C)c3ccc4c(C)n(C)nc4c3)n2)cc1S(N)(=O)=O.Cl
Output: 166

Input: In one line, give reported cell viability of the entry CC(=O)c1cc2c(o1)C(=O)c1ccccc1C2=O .
Output: 54.9

Input: Determine its reported cell viability: O=C([O-])c1ccccc1O.[Na+] [Sodium salicylate]
Output: 96.1

Input: Input CCCS(=O)c1ccc2nc(NC(=O)OC)[nH]c2c1 (centres undefined) [Albendazole Oxide] , output reported cell viability.
Output: 115

Input: Using known records, supply cell viability for C/C=C/C1=C(C(=O)O)N2C(=O)[C@@H](NC(=O)[C@H](N)c3ccc(O)cc3)[C@@H]2SC1
Output: 97.6

Input: Please list cell viability recorded for the compound CC(NCCCc1cccc(C(F)(F)F)c1)c1cccc2ccccc12 (centres undefined)
Output: 33.2

---

Kindly supply the reported cell viability values for the records listed here.
system: HCI11 (cells of an ER-positive luminal breast cancer xenograft); assay: cell viability (% of vehicle); higher = less cytotoxic; details: 10 µM; 72 h
Answer as a number with no unit attached.

Input: Assign cell viability to the following record: CCCC(NC(C)C(=O)N1C(C(=O)O)CC2CCCCC21)C(=O)OCC (configuration not stated)
Output: 111

Input: For the compound COc1cc(NC(C)CCCN)c2ncccc2c1.O=P(O)(O)O.O=P(O)(O)O (configuration not stated) [Primaquine Diphosphate] , give its reported cell viability.
Output: 49

Input: Given Cl.O=C(c1ccc(OCCN2CCCCC2)cc1)c1c(-c2ccc(O)cc2)sc2cc(O)ccc12 [Raloxifene HCl] , respond with its cell viability.
Output: 116

Input: Give cell viability for the following compound: Cc1cccc(Nc2ccccc2C(=O)O)c1C
Output: 98.1

Input: Answer with the recorded cell viability of Cc1nc(C(=O)NCC(=O)O)c(O)c2ccc(Oc3ccccc3)cc12 only.
Output: 140

Input: Fill in cell viability for record CN1CCN(C2=Nc3ccccc3Oc3ccc(Cl)cc32)CC1.O=C(O)CCC(=O)O [Loxapine Succinate]
Output: 84.4

Input: Look up and report measured cell viability for this entry: COc1ccc(CN(CCN(C)C)c2ccccn2)cc1.O=C(O)/C=C\C(=O)O [Mepyramine maleate]
Output: 93.9

Input: Give reported cell viability value for C.CCN1CC(CCN2CCOCC2)C(c2ccccc2)(c2ccccc2)C1=O.O (configuration not stated) [Doxapram HCl]
Output: 101

Input: Fill in reported cell viability for this entry: O=c1c(-c2ccc(O)cc2)coc2cc(O)cc(O)c12
Output: 129

Input: Please supply the value of reported cell viability for the item O=C1CCC(C(=O)N2CSCC2C(=O)O)N1 (configuration not stated)
Output: 96.7

Input: Return cell viability (reported value) for this compound: CC(=O)OCC(=O)C1(O)CCC2C3CCC4=CC(=O)C=CC4(C)C3C(O)CC21C (configuration not stated) [Prednisolone Acetate]
Output: 123

Input: # return recorded cell viability for input O=C(CCCN1CCC(O)(c2ccc(Cl)cc2)CC1)c1ccc(F)cc1
Output: 90

Input: Supply cell viability value. Item: CN(C)Cc1c(C(=O)NCCOc2ccc(C(=O)NO)cc2)oc2ccccc12
Output: 9.68

Input: Provide measured cell viability value, entry: Cl.N#Cc1ccc2[nH]cc(CCCCN3CCN(c4ccc5oc(C(N)=O)cc5c4)CC3)c2c1 [Vilazodone Hydrochloride]
Output: 122

Input: Query cell viability for CS(=O)(=O)O.Cc1ccc(N(CC2=NCCN2)c2cccc(O)c2)cc1 [Phentolamine Mesylate]
Output: 112

Input: Identify measured cell viability associated with NCCC(O)(P(=O)(O)O)P(=O)(O)O [Pamidronate]
Output: 144

Input: Name the recorded cell viability of the item CC(C)C1=CC(=C2NNC(=O)N2c2ccc3c(ccn3C)c2)C(=O)C=C1O [Ganetespib (STA-9090)] in your answer.
Output: 36.5

Input: Provide one value: measured cell viability of CCCCCCCCCCCCCCCCOP(=O)([O-])OCC[N+](C)(C)C
Output: 107

Input: Could you please provide reported cell viability for CC1CC2C3CC(F)C4=CC(=O)C=CC4(C)C3(F)C(O)CC2(C)C1(O)C(=O)CO (configuration not stated) ? Thanks!
Output: 145

Input: Check the records and state cell viability for CC(c1ncncc1F)C(O)(Cn1cncn1)c1ccc(F)cc1F (configuration not stated)
Output: 121

Input: Annotate the compound CN(CC=CC#CC(C)(C)C)Cc1cccc2ccccc12.Cl [Terbinafine HCl] with its measured cell viability.
Output: 81.6

Input: Recall and state the measured cell viability for CCCNC(C)C(=O)Nc1c(C)csc1C(=O)OC.Cl (configuration not stated) [Articaine HCl] .
Output: 96.9

Input: Please give measured cell viability of the following entry: CO[C@@]12[C@H](COC(N)=O)C3=C(C(=O)C(C)=C(N)C3=O)N1C[C@@H]1N[C@@H]12
Output: 64.6

Input: Please give measured cell viability of the following entry: Cc1nnc(NS(=O)(=O)c2ccc(N)cc2)s1
Output: 87

Input: Look up and state reported cell viability for Cl.Cl.NC(=NCCCCCCN=C(N)N=C(N)Nc1ccc(Cl)cc1)N=C(N)Nc1ccc(Cl)cc1 [Chlorhexidine HCl]
Output: 76

Input: Kindly indicate its recorded cell viability. Item: CC(=O)NC(CS)C(=O)O (configuration not stated)
Output: 90

Input: Give a short answer stating reported cell viability for CCC1OC(=O)C(C)C(OC2CC(C)(OC)C(O)C(C)O2)C(C)C(OC2OC(C)CC(N(C)C)C2O)C(C)(OC)CC(C)C(=O)C(C)C(O)C1(C)O (configuration not stated) .
Output: 116

Input: Read off the recorded cell viability for Cc1cnc(Nc2ccc(OCCN3CCCC3)cc2)nc1Nc1cccc(S(=O)(=O)NC(C)(C)C)c1
Output: 138

Input: Return cell viability for the following compound: NCC1OC(OC2C(CO)OC(OC3C(O)C(N)CC(N)C3OC3OC(CN)C(O)C(O)C3N)C2O)C(N)C(O)C1O.O=S(=O)(O)O (configuration not stated) [Neomycin sulfate]
Output: 95.9

Input: Report cell viability for CCOC(=O)CCC(=O)OC1C(OC2C(C)C(OC3CC(C)(OC)C(O)C(C)O3)C(C)C(=O)OC(CC)C(C)(O)C(O)C(C)C(=O)C(C)CC2(C)O)OC(C)CC1N(C)C (configuration not stated) [Erythromycin Ethylsuccinate]
Output: 96.1

Input: Given CCCCCC(O)C=CC1C(O)CC(=O)C1CCCCCCC(=O)O (configuration not stated) , respond with its cell viability.
Output: 104

Input: Report measured cell viability; entry is CN(C)CCC=C1c2ccccc2CCc2ccccc21.Cl [Amitriptyline HCl]
Output: 83.2

---

tested on: WHIM30 (cells of a triple-negative basal-like breast cancer xenograft); assay: cell viability (% of vehicle); higher = less cytotoxic; details: 10 µM; 72 h
Threshold check on cell viability: strictly below 100 is rule met; on or above 100 is rule not met.

Input: Is it true that cell viability reported for Nc1c(CC(=O)[O-])cccc1C(=O)c1ccc(Br)cc1.[Na+] [Bromfenac Sodium] is less than 100?
Output: rule not met

Input: is_below(cell viability, 100) for CCCCC(=O)N(Cc1ccc(-c2ccccc2-c2nnn[nH]2)cc1)[C@H](C(=O)O)C(C)C.CCOC(=O)[C@H](C)C[C@@H](Cc1ccc(-c2ccccc2)cc1)NC(=O)CCC(=O)O ?
Output: rule not met

Input: Record Cc1c(O)c(=O)ccn1C : is its cell viability strictly below 100?
Output: rule met

Input: Below 100 on cell viability? Entry CC(C)(C)c1ccc(C(=O)CCCN2CCC(OC(c3ccccc3)c3ccccc3)CC2)cc1
Output: rule met

Input: Is it true that cell viability reported for O=C([O-])CC(O)CC(O)C=Cc1c(C2CC2)nc2ccccc2c1-c1ccc(F)cc1.O=C([O-])CC(O)CC(O)C=Cc1c(C2CC2)nc2ccccc2c1-c1ccc(F)cc1.[Ca+2] (centres undefined) is less than 100?
Output: rule met

Input: State whether 100 exceeds cell viability recorded for CC(=O)[C@@]1(O)CC[C@H]2[C@@H]3CCC4=CC(=O)CCC4=C3[C@@H](c3ccc(N(C)C)cc3)C[C@@]21C .
Output: rule not met

Input: Given the entry CN(C)CCN1C(=O)c2cccc3cc(N)cc(c23)C1=O [Amonafide] , would its reported cell viability be below 100?
Output: rule met

Input: Strictly below 100 in cell viability? CN(CCOc1ccc(CC2SC(=O)NC2=O)cc1)c1ccccn1 (centres undefined)
Output: rule not met

Input: Confirm or reject: cell viability of CCOC(=O)C1=C(C)NC(C)=C(C(=O)OC)C1c1cccc(Cl)c1Cl (centres undefined) lies strictly below 100
Output: rule not met

Input: API: query returns whether the compound falls strictly under 100 in cell viability. Query: Cc1onc(-c2ccccc2)c1C(=O)NC1C(=O)N2C1SC(C)(C)C2C(=O)[O-].O.[Na+] (centres undefined) [Oxacillin sodium monohydrate]
Output: rule not met

Input: Quick check: does Nc1[nH]c(=O)ncc1F have cell viability under 100?
Output: rule met

Input: Take the compound CC(=O)O[C@H]1C(=O)[C@@]2(C)[C@H]([C@H](OC(=O)c3ccccc3)[C@]3(O)C[C@H](OC(=O)[C@H](O)[C@@H](NC(=O)c4ccccc4)c4ccccc4)C(C)=C1C3(C)C)[C@]1(OC(C)=O)CO[C@@H]1C[C@@H]2O and say whether its cell viability is less than 100.
Output: rule not met

Input: Please state whether cell viability is below 100 for CCCCOc1cc(C(=O)OCCN(CC)CC)ccc1N.Cl [Oxybuprocaine HCl]
Output: rule not met

Input: Here's an entry: CC(O)C1C(=O)N2C(C(=O)O)=C(SC3CNC(CNS(N)(=O)=O)C3)C(C)C12 (centres undefined) . Is its cell viability below 100?
Output: rule met
